Experiment: Effect of antioxidants on sincalide formulation stability (HPLC)
Conditions: antioxidant 10 μg/mL, Open, 8 h
Description: […] The effect of various antioxidants on the stabilization of sincalide was evaluated on open and sealed sincalide formulations over 15 hours. […] The sincalide and total sincalide-related impurities were monitored by reversed-phase HPLC with gradient elution and UV detection at 215 nm to compare the effectiveness of the antioxidants. […]
measurement.kind: % Sincalide (%)
Number in %, nothing else.

O=S(=O)([O-])[O-].[Na+].[Na+] [Sodium Sulfate] ... 98.2

Q. Reported % Sincalide for N[C@@H](CS)C(=O)O : what is it?
A. 97.7

Q. And the next one, CC(C)(C)CC(C)(C)c1ccc(OCCOCC[N+](C)(C)Cc2ccccc2)cc1 [Benzethonium Chloride] ?
A. 88.0

Q. Continue with O=C1O[C@H]([C@@H](O)CO)C(O)=C1O
A. 98.0

Q. Check N[C@@H](CCC(=O)N[C@@H](CS)C(=O)NCC(=O)O)C(=O)O too.
A. 98.2

Q. Next entry: O=S([O-])S(=O)(=O)[O-].[Na+].[Na+] [Sodium Metabisulfite]
A. 98.3
